- assay_target: sucrase
- method_notes: Sucrase inhibition assay
- condition: mean ± SD; acarbose positive control; read-out: IC50 Values Against Sucrase
endpoint_label: IC50 (µM)
Give the value, in units of µM, as a plain number.

CCC(=O)OC[C@H]1O[C@H](O[C@H]2[C@H](O)[C@@H](O)[C@@H](O[C@H]3[C@H](O)[C@@H](O)C(O)O[C@@H]3CO)O[C@@H]2CO)[C@H](O)[C@@H](O)[C@@H]1O[C@H]1O[C@H](C)[C@@H](N[C@H]2C=C(CO)[C@@H](O[C@H]3O[C@H](CO)[C@@H](O[C@H]4O[C@H](C)[C@@H](N[C@H]5C=C(CO)[C@@H](O)[C@H](O)[C@H]5O)[C@H](O)[C@H]4O)[C@H](O)[C@H]3O)[C@H](O)[C@H]2O)[C@H](O)[C@H]1O (some centres unmarked) [Compound 11, D6-O-Propionyl-acarviostatin II02]: 4.34

Short answer for CC(C)C(=O)OC[C@H]1O[C@H](O[C@H]2[C@H](O)[C@@H](O)[C@@H](O[C@H]3[C@H](O)[C@@H](O)C(O)O[C@@H]3CO)O[C@@H]2CO)[C@H](O)[C@@H](O)[C@@H]1O[C@H]1O[C@H](C)[C@@H](N[C@H]2C=C(CO)[C@@H](O[C@H]3O[C@H](CO)[C@@H](O[C@H]4O[C@H](C)[C@@H](N[C@H]5C=C(CO)[C@@H](O)[C@H](O)[C@H]5O)[C@H](O)[C@H]4O)[C@H](O)[C@H]3O)[C@H](O)[C@H]2O)[C@H](O)[C@H]1O (some centres unmarked) [Compound 12, D6-O-Isobutyryl-acarviostatin II02] : IC50 was 6.79
